# TESTED SYSTEM: Aedes aegypti neuropeptide Y-like receptor 7 (NPYLR7)
# ASSAY EXPLANATION: agonists of mosquito NPYLR7 receptor, confirmation, cell-based, Aedes aegypti, hit validation, mosquito biting behavior (AID 1259427);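 further: potency of agonists that activate the receptor and raise the calcium signal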
# ASSAY CONDITIONS: HEK293T NPYLR7/Galpha15/GCaMP6s, calcium fluorescence
Calls of active or inactive are those of the source.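 How the source made its calls: active means EC50 at or below a set limit, with no effect in the paired counter-screen assay; inactive means the rest.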
Labels: active, inactive

COMPOUND: N#CC(C#N)=C1C=C2C=C(N3CCc4ccccc4C3)CCC2CC1 (stereo not given)
CLASS: inactive
//
COMPOUND: O=C(NCCSc1ccc(Cl)cc1)c1ccc2c(=O)n3c(nc2c1)CCC3
CLASS: inactive
//
COMPOUND: CC(=O)Nc1nc(COC(=O)c2[nH]c(C)c(C(=O)OC(C)C)c2C)cs1
CLASS: inactive
//
COMPOUND: CN(Cc1ccccc1)c1cc(Oc2cccc(Cl)c2)ncn1
CLASS: inactive
//
COMPOUND: CCN1/C(=C/C2=CC(=O)CC(C)(C)C2)Sc2ccccc21
CLASS: inactive
//
COMPOUND: CSc1nc(N)c2ncn([C@@H]3O[C@H](COP(=O)(O)OP(=O)(O)OP(=O)(O)O)[C@H](O)C3O)c2n1 (stereo not given in full)
CLASS: inactive
//
COMPOUND: CCCC1CCC(C(=O)Nc2nnc(SCC)s2)CC1 (stereo not given)
CLASS: inactive
//
COMPOUND: Cc1ccc(NC2C=CS(=O)(=O)C2)cc1C (stereo not given)
CLASS: inactive
//
COMPOUND: COc1cc(/C=C2\SC(=S)N(c3cccc(C(=O)O)c3)C2=O)ccc1O
CLASS: inactive
//
COMPOUND: Cc1ccc(Nc2nc(Nc3cccc(F)c3)nc3nccnc23)c(C)c1
CLASS: inactive
//
COMPOUND: CCCCCN=C(N)NN=Cc1c[nH]c2ccc(OC)cc12
CLASS: active
//
COMPOUND: COc1cc(C=C2C=c3c(O)cccc3=C2O)cc(Cl)c1O
CLASS: inactive
//
COMPOUND: C=CCNc1ccc2c3c(cccc13)C(=O)N(c1ccccc1)C2=O
CLASS: inactive
//
COMPOUND: CCOC(=O)C1=C(O)/C(=C\c2ccc(N(C)C)cc2)SC1=Nc1ccc(OC)cc1OC
CLASS: inactive
//
COMPOUND: O=C(O)c1csc(CSc2nnc(Cc3ccccc3)n2-c2cccc(C(F)(F)F)c2)n1
CLASS: inactive
//
COMPOUND: Cc1c(NC(=O)COC(=O)C(C#N)=Cc2ccc(N(C)C)cc2)c(=O)n(-c2ccccc2)n1C
CLASS: inactive
//
COMPOUND: Cc1cc2c(c(-c3ccc4c(cnn4C)c3)c1)OC(CN)C2 (stereo not given)
CLASS: inactive
//
COMPOUND: CCN1CCN(C2=CC3=CC(=C(C#N)C#N)CCC3CC2)CC1 (stereo not given)
CLASS: inactive
//
COMPOUND: FC(F)(F)c1ccc(-c2nc3ccc(Cl)cn3c2NCc2ccccc2)cc1
CLASS: inactive
//
COMPOUND: O=C(O)CN1C(=O)/C(=C/c2cc(Br)c(O)c(Br)c2)SC1=S
CLASS: inactive
//
COMPOUND: COc1cc(C=C(C#N)C(=O)OC(C)C)cc(Cl)c1O
CLASS: inactive
//
COMPOUND: COc1cc(-c2nc3n(n2)C(c2ccc(O)cc2)C(C(N)=O)=C(C)N3)cc(OC)c1OC (stereo not given)
CLASS: inactive
//
COMPOUND: CCC(CO)[n+]1c(C)cc(C=C2Sc3ccccc3N2Cc2ccccc2)cc1C (stereo not given)
CLASS: active
//
COMPOUND: O=C(c1nccc2ccccc12)N1CCN(CC2CCCC2)CC1
CLASS: inactive
//
COMPOUND: Cc1ccc(OCCNC(=O)N2CCN(S(=O)(=O)c3ccccc3Cl)CC2)c(C)c1
CLASS: inactive
//
COMPOUND: C[C@@H](NC(=O)CN1Cc2ccc(N3CCOCC3)nc2C1=O)c1ccccc1
CLASS: inactive
//
COMPOUND: CC1CN(c2ccc(/C=C(\C#N)c3nc4ccccc4[nH]3)o2)CC(C)O1 (stereo not given)
CLASS: inactive
//
COMPOUND: N#CC(C#N)=C1C=C2C=C(N3CCCCC3)CCC2CC1 (stereo not given)
CLASS: inactive
//
COMPOUND: Cc1ccc(CN(Cc2ccc(F)cc2)C(=O)CNCCN2CCOCC2)s1
CLASS: inactive
//
COMPOUND: COCCCN(Cc1ccc(C(C)(C)C)cc1)Cc1cccn1Cc1cccc(C)c1
CLASS: inactive
